Entry source: patent US20200325177A1

- Test system: S. aureus
- procedureSummary: MIC, Gram-positive bacteria: S. aureus (strains not named)
- Type: cell-based
- testContext: Staphylococcus aureus, third unnamed S. aureus column (c7), read-out: Minimal Inhibitory Concentration (MIC) S. aureus
experimentalReadout: MIC (µg/mL)
Your answer should be a plain number; it is taken to be in µg/mL.

Enquiry: So what does the record say about MIC for CC1=C\[C@@H](O)CC(=O)Cc2nc(co2)C(=O)N2CCC[C@@H]2C(=O)O[C@H](C(C)(C)C)[C@H](C)/C=C/C(=O)NC\C=C\1 [SA0306004] ?
Return: 64

Enquiry: Same again, this time with CC1=C\[C@@H](O)CC(=O)Cc2nc(co2)C(=O)N2CCC[C@@H]2C(=O)O[C@H]([C@H](C)COC(=O)Nc2ccccc2)[C@H](C)/C=C/C(=O)NC\C=C\1 [SA0110196]
Return: 64

Enquiry: Note, next up: CC1=C\[C@@H](O)C[C@@H](O)Cc2nc(co2)C(=O)N[C@H](C)C(=O)O[C@H](C(C)C)[C@H](C)/C=C/C(=O)NC\C=C\1 [madumycin II, Madumycin II, reference compound]
Return: 16

Enquiry: What do you get for CC1=C\[C@@H](O)CC(=O)Cc2nc(co2)C(=O)N2CCC[C@@H]2C(=O)O[C@H]([C@H](C)COC(=O)Nc2ccnc(Br)c2)[C@H](C)/C=C/C(=O)NC\C=C\1 [SA0110206] ?
Return: 32

Enquiry: Lookup COc1ccc(NC(=O)OC[C@H](C)[C@H]2OC(=O)[C@H]3CCCN3C(=O)c3coc(n3)CC(=O)C[C@H](O)/C=C(C)/C=C/CNC(=O)/C=C/[C@H]2C)cc1 [SA0110040]
Return: 64

Enquiry: Subsequent entry: CC1=C\[C@@H](O)CC(=O)Cc2nc(co2)C(=O)N2CCC[C@@H]2C(=O)O[C@H]([C@H](C)CF)[C@H](C)/C=C/C(=O)NC\C=C\1 [SA0110273]
Return: 64

Enquiry: Another molecule: CC1=C\[C@@H](O)CC(=O)Cc2nc(co2)C(=O)N[C@H](C)C(=O)O[C@H](C(C)C)[C@H](C)/C=C/C(=O)NC\C=C\1 [madumycin I, Madumycin I, reference compound]
Return: 8
